Test system: HEK-293T
Assay: Multiplex assay against HEK293T
Type: toxicity, cell-based
Conditions: human, 48 h, 1 µM, compound concentration 1 uM, replicate 2
measurement.label: Total Cell Count
Number only, no unit.

Bench note: what Total Cell Count did Cc1cc(=O)n(C)c2cc(N3C(=O)CC[C@H](NS(=O)(=O)CC(C)C)[C@H]3c3ccc(Cl)cc3)ccc12 show?
454

Request: O=c1nc2[nH]c3ccccc3nc-2c(=O)[nH]1 [ALLOXAZINE]
636

Request: Cc1nn(C)c2nc(NNC(=O)Nc3cc(Cl)nc(Cl)c3)cc(C(C)C)c12
748

Request: Nc1nc(-c2ccco2)c2cnn(Cc3ccccc3F)c2n1
769

Request: CCCCCCNC(=O)Nc1ccc(S(=O)(=O)Nc2ccc(CCNC[C@H](O)COc3ccc(O)cc3)cc2)cc1 [L-755507]
775

Request: COCCn1c(C)c(C)s/c1=N\C(=O)C1C(C)(C)C1(C)C
567

Request: CCC(=O)OCC(=O)[C@@]1(OC(=O)CC)[C@@H](C)C[C@H]2[C@@H]3CCC4=CC(=O)C=C[C@]4(C)[C@@]3(Cl)[C@@H](O)C[C@@]21C [BECLOMETHASONE DIPROPIONATE]
655

Request: COC(c1ccccc1)(c1ccccc1)[C@H](Oc1nc(C)cc(C)n1)C(=O)O [AMBRISENTAN]
605
